Tested on: DOHH2 cells
Test: Medium throughput combination proliferation assay (CellTiter-Glo, Chou-Talalay CI / potency shift)
Settings: DOHH2; combination with Compound 44; data normalized to individual 6438 concentrations instead of DMSO
metric: 1/α
Kindly provide the number alone.

// query Which 1/α is listed for CC[C@H](Nc1ncnc2[nH]cnc12)c1nc2cccc(F)c2c(=O)n1-c1ccccc1 ?
// result 0.59

// query Which 1/α is listed for CC(C)C[C@H](NC(=O)[C@H](Cc1ccccc1)NC(=O)c1cnccn1)B(O)O ?
// result 0.96

// query Which 1/α is listed for C[C@]12C=CC(=O)C=C1CC[C@@H]1[C@@H]2[C@@H](O)C[C@@]2(C)[C@H]1CC[C@]2(O)C(=O)CO ?
// result 9.5
